assay.name: Metabolic stability in rat serum assessed as half time of disappearance at 1 mM by MALDI-TOF mass spectrometry assay
Format: ADME, cell-free
condition.details: read-out: T50
Starred links: 1 amine or outer side, 2 acyl side, 3 side chain; linkers in the order of their positions; H or OH if unused. Non-standard residues stand in square brackets, D forms with d. Residues, ends and D or L forms follow the SMILES beside them. *: point of attachment. NMeβ3hLys = CN([C@@H](CCCCN)CC(=O)[*:2])[*:1]; X1 = [N-]=[N+]=N[C@@H](CCCNC(=N)N)C(=O)*; X2 = [N-]=[N+]=N[C@@H](CCCCN)CC(=O)*; NMeR = CN[C@@H](CCCNC(=N)N)C(=O)O; Tle = CC(C)(C)[C@H](N)C(=O)O; β3hK = NCCCC[C@H](N)CC(=O)O; Ahp = NCCCCCCC(=O)O
readout.label: half-life at 1000 µM
Include the unit right after the number.

Name the recorded half-life at 1000 µM for CC(C)C[C@H](NC(=O)[C@@H](NC(=O)[C@H](Cc1ccc(O)cc1)NC(=O)[C@@H]1CCCN1C(=O)[C@H](CCCNC(=N)N)NC(=O)CCCCCCN)C(C)(C)C)C(=O)O (H-[Ahp]RPY[Tle]L-OH) . 74.8 h

Field entry: CN[C@@H](CCCNC(=N)N)C(=O)N[C@@H](CCCCN)C(=O)N1CCC[C@H]1C(=O)N[C@@H](Cc1c[nH]c2ccccc12)C(=O)N[C@H](C(=O)N[C@@H](CC(C)C)C(=O)O)C(C)(C)C (H-[NMeR]KPW[Tle]L-OH) 162 h

Field entry: CC(C)C[C@H](NC(=O)[C@@H](NC(=O)[C@H](Cc1ccc(O)cc1)NC(=O)[C@@H]1CCCN1C(=O)[C@H](CCCNC(=N)N)NC(=O)C[C@@H](N)CCCCN)C(C)(C)C)C(=O)O (H-[β3hK]RPY[Tle]L-OH) 0.21 h

Field entry: CC[C@@H](C)[C@H](NC(=O)[C@H](Cc1ccc(O)cc1)NC(=O)[C@@H]1CCCN1C(=O)[C@H](CCCNC(=N)N)NC(=O)[C@H](CCCNC(=N)N)NC)C(=O)N[C@@H](CC(C)C)C(=O)O 4.33 h

Field entry: CC[C@@H](C)[C@H](NC(=O)[C@H](Cc1ccc(O)cc1)NC(=O)[C@@H]1CCCN1C(=O)[C@H](CCCNC(=N)N)NC(=O)[C@@](C)(N)CCCNC(=N)N)C(=O)N[C@@H](CC(C)C)C(=O)O 3.65 h

Field entry: CC(C)C[C@H](NC(=O)[C@@H](NC(=O)[C@H](Cc1c[nH]c2ccccc12)NC(=O)[C@@H]1CCCN1C(=O)[C@H](CCCCN)NC(=O)[C@H](CCCNC(=N)N)N=[N+]=[N-])C(C)(C)C)C(=O)O (X1-KPW[Tle]L-OH) 67.8 h

Field entry: CC(C)C[C@H](NC(=O)[C@@H](NC(=O)[C@H](Cc1ccc(O)cc1)NC(=O)[C@@H]1CCCN1C(=O)[C@H](CCCNC(=N)N)NC(=O)C[C@H](CCCCN)N=[N+]=[N-])C(C)(C)C)C(=O)O (X2-RPY[Tle]L-OH) 52 h

Field entry: CC[C@H](C)[C@H](NC(=O)[C@H](Cc1ccc(O)cc1)NC(=O)[C@@H]1CCCN1C(=O)[C@H](CCCNC(=N)N)NC(=O)[C@@H](N)CCCNC(=N)N)C(=O)N[C@@H](CC(C)C)C(=O)O 0.167 h

Field entry: CN[C@@H](CCCCN)CC(=O)N[C@@H](CCCN=C(N)N)C(=O)N1CCC[C@H]1C(=O)N[C@@H](Cc1ccc(O)cc1)C(=O)N[C@H](C(=O)N[C@@H](CC(C)C)C(=O)O)C(C)(C)C (NMeβ3hLys-RPY[Tle]L-OH) 71.8 h

Cited source: ChEMBL document CHEMBL1153387
